experimental-system: cAMP-dependent protein kinase catalytic subunit alpha (Homo sapiens, UniProt P17612)
Type: functional
Activity calls are given as the source filed them.
The categories you may choose from are active, inactive

Solved cases (3 shown):
Nc1c(-c2ccc(NC(=O)Nc3cccc(C(F)(F)F)c3)cc2)cnc2c(-c3ccc4c(c3)OCO4)cnn12: inactive
O=C(Nc1cc(-c2c[nH]c3ncccc23)cc(Cl)n1)c1ccccc1: inactive
COCC(C)Nc1cc(-c2c[nH]c3ncccc23)cc(Cl)n1 (centres undefined): active

Please examine the following record next.
Ask | Hi team, can someone confirm the assay call for c1ccc(Cn2cc(-c3ccc4[nH]nc(-c5ccccc5)c4c3)nn2)cc1 ?
Reply | active

###

experimental-system: Histone-lysine N-methyltransferase NSD2 (Homo sapiens, UniProt O96028)
Sequence (O96028 whole entry): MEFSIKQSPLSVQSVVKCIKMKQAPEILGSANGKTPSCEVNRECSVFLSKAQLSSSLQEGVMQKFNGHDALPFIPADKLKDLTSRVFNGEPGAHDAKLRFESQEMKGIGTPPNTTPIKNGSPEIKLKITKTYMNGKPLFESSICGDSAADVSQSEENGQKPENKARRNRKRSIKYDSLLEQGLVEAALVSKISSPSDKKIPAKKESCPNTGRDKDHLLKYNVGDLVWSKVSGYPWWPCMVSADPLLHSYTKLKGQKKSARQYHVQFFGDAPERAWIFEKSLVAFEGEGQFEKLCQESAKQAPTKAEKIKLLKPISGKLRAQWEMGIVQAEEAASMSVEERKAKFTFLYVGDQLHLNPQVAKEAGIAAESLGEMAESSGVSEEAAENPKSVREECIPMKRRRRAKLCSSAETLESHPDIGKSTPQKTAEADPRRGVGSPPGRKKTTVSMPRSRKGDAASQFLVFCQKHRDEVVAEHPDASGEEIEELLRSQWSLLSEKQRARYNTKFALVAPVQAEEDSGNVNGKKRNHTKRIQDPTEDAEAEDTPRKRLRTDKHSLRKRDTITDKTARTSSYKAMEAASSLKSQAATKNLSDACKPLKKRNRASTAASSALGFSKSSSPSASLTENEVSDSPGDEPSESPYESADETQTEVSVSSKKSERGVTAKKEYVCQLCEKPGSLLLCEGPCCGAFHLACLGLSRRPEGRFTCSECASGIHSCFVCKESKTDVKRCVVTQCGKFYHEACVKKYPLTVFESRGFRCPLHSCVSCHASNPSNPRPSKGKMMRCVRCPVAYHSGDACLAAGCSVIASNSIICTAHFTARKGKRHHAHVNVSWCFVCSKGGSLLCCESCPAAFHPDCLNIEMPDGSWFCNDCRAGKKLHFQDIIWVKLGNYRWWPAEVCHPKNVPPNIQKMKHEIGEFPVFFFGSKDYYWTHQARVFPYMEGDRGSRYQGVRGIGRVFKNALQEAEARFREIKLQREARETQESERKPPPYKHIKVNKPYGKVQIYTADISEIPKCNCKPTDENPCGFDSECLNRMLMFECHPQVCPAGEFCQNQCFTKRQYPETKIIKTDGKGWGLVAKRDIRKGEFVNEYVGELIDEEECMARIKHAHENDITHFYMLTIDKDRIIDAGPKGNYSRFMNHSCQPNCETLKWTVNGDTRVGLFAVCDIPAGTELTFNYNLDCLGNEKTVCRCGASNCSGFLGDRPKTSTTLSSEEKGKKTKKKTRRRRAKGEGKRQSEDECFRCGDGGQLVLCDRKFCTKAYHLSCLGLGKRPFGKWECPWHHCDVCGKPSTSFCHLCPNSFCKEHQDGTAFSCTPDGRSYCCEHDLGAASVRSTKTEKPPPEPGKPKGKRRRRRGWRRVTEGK
Format: biochemical
Activity calls are given as the source filed them.
In this exercise, the only acceptable responses are active, inactive

Ask | Lab log entry: O=C1Nc2ccccc2/C1=N/N=C/c1ccc(O)c(O)c1 — outcome as called in the assay?
Reply | active

Ask | How was CC(C(=O)O)N1C(=O)/C(=C/C=C/c2ccco2)SC1=S (stereo not drawn) classified in this test?
Reply | active

Ask | Hi team, can someone confirm the assay call for Nc1nnc2c(n1)CCCC2 ?
Reply | active

Ask | Outcome logged for COCCn1c2nc(=O)n(-c3ccccc3)c(=O)c-2nc2ccccc21 in this assay:
Reply | active

Ask | I would be grateful if you could indicate the recorded call for O=C(Cc1ccccc1Cl)NC1(O)C(=O)c2ccccc2C1=O .
Reply | active

Ask | I'd appreciate the recorded outcome for Nc1ccc2c(O)cc(S(=O)(=O)O)cc2c1 from this test.
Reply | active

Ask | Record request — test call for O=C1c2c(O)ccc(O)c2C(=O)c2c(NCCNCCO)ccc(NCCNCCO)c21
Reply | active

Ask | Assay outcome for CCN(CC)CCCN(Cc1cc2cc3c(cc2nc1O)OCO3)C(S)=NCCCOC : what was it?
Reply | inactive

###

experimental-system: Fatty acid synthase (Homo sapiens)
measurement-description: inhibition of human FAS-TE enzyme activity – biochemical, endpoint fluorescence intensity, uHTS hits, dose response (AID 624327);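 note: fluorescence from hydrolysis of an O-methyl fluorescein acyl ester substrate by the enzyme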
Type: functional
Calls of active or inactive are those of the source.
experimental-readout: IC50

Sample records with IC50:
Cc1cccc(OCC(=O)N/N=C/c2cc([N+](=O)[O-])ccc2N2CCOCC2)c1: 9.22 µM (active)
Cc1c(Cl)c([N+](=O)[O-])nn1CCCC(=O)N(Cc1ccccc1)Cc1ccccc1: 10 µM (active)
Cc1sc(N2CCN(S(=O)(=O)c3ccc4c(c3)NC(=O)CO4)CC2)nc1-c1ccccc1: 4.15 µM (active)
CCCCCCCCCCCCN1[C@@H](CC(=O)O)c2cc(F)ccc2S1(=O)=O: 2.83 µM (active)

Ask | GET /values?readout=IC50&item= C[C@H](NC(=O)c1[nH]cnc1C(=O)N[C@@H](CCCCNC(=O)OC(C)(C)C)C(=O)OC(C)(C)C)C(=O)OC(C)(C)C
Reply | 2.95 µM (active)

Ask | For the molecule CCOC(=O)C1CCCN(c2nc3c(C)cccn3c(=O)c2/C=C(\C#N)C(=O)NCc2ccco2)C1 (stereo not drawn) , what IC50 is on record?
Reply | 16.2 µM (active)

Ask | Bench note: what IC50 did O=C(NCc1ccc2c(c1)OCO2)c1ccc(C2SCC(=O)N2Cc2ccco2)cc1 (stereo not drawn) show?
Reply | 8.5 µM (active)

Ask | Name the recorded IC50 for COc1ccc2[nH]c3c(c2c1)CCN1C(=O)C(CC(=O)NC(C)(C)C)C[C@H](C(=O)N2CCOCC2)[C@@]31CCC1CCCC1 (stereo partly drawn) .
Reply | 8.32 µM (active)

###

experimental-system: Caspase-6 (Homo sapiens)
measurement-description: inhibition of CASP6 peptide cleavage – biochemical, VEID-R110 fluorescence, cherry-pick, dose response (AID 720632)
Calls of active or inactive are those of the source.
AC50 values, listed per item

Nc1ccc2c(O)cc(S(=O)(=O)O)cc2c1: 2.15 µM (active)
CCO/C=C1/C(=O)N(c2ccccc2OC)C(=O)c2ccccc21: 13.9 µM (active)
Cc1ccc(Nc2ccc(N)cc2S(=O)(=O)O)cc1: 13.7 µM (active)
O=C1Nc2ccccc2/C1=N/N=C/c1ccc(O)c(O)c1: 0.226 µM (active)
CCOc1ccc2nc3cc(NCc4ccc(OC)cc4)ccc3c(N)c2c1: 4.3 µM (active)

Ask | Request - read-out AC50 | tested on Caspase-6 (Homo sapiens) | molecule O=C(O)C1C2C=CC(C2)C1C(=O)Nc1ccccc1Br (configuration not stated)
Reply | 6.78 µM (active)

Ask | Give AC50 (Caspase-6 (Homo sapiens)) of the following molecule: COCCn1c2nc(=O)n(-c3ccccc3)c(=O)c-2nc2ccccc21
Reply | 3.93 µM (active)

###

Entries annotated with measured IC50
experimental-system: Voltage-gated N-type calcium channel alpha-1B subunit/Amyloid beta A4 precursor protein-binding family A member 1 (Homo sapiens, UniProt Q00975+Q02410)
Sequence (Q00975 whole entry): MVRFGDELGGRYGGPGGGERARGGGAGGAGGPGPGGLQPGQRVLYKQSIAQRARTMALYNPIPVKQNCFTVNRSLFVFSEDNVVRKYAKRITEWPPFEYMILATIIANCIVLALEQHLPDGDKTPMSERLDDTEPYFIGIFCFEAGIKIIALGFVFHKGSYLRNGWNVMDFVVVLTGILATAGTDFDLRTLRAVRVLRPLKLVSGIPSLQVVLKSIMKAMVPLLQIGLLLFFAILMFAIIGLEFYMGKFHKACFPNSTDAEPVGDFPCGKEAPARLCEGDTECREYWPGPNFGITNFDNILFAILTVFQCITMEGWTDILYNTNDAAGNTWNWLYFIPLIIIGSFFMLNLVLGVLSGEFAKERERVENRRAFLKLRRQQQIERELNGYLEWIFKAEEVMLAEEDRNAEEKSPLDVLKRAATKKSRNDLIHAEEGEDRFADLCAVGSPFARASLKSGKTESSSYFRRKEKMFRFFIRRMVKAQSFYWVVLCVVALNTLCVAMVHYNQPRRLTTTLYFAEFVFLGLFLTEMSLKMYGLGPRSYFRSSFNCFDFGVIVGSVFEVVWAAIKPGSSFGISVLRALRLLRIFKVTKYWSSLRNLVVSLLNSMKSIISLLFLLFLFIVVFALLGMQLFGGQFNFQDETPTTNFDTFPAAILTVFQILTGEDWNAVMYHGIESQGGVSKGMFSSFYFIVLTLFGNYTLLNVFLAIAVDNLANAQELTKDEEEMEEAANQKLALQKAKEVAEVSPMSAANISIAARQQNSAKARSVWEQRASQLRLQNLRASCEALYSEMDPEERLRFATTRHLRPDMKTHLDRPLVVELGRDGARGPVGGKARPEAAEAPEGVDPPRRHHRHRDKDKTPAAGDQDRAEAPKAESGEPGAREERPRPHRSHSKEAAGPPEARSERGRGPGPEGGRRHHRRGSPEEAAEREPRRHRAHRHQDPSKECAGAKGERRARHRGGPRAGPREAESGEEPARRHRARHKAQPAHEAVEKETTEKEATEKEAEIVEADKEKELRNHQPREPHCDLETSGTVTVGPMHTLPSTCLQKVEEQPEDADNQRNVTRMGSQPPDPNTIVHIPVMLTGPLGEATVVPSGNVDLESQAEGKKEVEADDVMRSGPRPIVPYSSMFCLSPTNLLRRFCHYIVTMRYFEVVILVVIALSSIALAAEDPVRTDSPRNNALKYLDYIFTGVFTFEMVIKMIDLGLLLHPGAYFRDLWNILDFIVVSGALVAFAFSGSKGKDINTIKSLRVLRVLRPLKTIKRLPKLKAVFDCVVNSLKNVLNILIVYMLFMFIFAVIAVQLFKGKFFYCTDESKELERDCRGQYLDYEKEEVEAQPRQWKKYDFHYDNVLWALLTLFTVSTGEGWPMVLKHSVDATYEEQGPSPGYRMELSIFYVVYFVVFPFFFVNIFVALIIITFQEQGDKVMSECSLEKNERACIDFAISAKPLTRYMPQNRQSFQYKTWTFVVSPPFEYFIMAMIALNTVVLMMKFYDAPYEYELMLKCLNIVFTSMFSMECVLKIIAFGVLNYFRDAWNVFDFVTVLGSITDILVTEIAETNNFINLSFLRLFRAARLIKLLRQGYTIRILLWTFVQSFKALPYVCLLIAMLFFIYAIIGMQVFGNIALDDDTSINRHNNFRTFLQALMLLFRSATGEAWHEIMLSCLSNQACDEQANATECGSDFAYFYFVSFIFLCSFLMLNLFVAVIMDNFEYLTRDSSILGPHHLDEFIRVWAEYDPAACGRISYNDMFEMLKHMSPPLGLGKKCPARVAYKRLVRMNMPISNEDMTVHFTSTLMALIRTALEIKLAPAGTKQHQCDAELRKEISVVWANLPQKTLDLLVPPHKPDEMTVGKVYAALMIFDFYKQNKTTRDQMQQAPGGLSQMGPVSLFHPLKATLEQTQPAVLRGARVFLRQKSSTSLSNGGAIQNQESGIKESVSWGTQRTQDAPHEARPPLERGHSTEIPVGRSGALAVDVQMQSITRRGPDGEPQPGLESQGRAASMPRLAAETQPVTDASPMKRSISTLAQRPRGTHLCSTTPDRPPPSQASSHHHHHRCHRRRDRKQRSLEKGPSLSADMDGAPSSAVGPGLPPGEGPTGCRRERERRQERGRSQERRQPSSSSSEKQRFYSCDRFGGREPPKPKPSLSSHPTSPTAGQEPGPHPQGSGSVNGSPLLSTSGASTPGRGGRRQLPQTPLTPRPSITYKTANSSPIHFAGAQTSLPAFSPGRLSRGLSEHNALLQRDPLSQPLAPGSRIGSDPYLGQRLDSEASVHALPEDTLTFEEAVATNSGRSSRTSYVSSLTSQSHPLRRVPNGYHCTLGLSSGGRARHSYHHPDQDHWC
Sequence (Q02410 whole entry): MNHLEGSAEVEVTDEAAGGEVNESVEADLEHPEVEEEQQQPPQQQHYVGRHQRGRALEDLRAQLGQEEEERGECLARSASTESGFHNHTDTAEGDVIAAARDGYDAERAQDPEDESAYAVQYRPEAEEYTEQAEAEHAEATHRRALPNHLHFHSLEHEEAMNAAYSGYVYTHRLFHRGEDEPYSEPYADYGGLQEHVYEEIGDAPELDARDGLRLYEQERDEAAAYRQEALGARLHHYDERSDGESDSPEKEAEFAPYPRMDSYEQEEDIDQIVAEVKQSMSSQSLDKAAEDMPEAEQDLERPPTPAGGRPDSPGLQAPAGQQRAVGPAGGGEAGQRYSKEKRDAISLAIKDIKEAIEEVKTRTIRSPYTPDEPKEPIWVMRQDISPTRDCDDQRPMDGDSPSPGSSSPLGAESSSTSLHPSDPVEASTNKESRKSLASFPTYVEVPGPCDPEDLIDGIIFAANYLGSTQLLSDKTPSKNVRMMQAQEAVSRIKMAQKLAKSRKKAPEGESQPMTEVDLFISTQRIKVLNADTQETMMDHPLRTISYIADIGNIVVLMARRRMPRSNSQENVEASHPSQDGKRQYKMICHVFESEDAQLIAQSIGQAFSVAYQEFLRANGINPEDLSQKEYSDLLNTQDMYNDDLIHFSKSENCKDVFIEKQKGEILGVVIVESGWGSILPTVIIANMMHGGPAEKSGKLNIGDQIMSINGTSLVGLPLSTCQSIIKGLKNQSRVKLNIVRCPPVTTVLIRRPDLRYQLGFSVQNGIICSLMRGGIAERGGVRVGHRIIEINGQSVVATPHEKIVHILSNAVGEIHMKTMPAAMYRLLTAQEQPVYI
Type: protein assay
Active and inactive are the calls of the source.

Use the examples below as a reference point.
O=C(CCN1C(=O)/C(=C/c2ccccc2Cl)SC1=S)NC1CCS(=O)(=O)C1 (centres undefined): 5.22 µM (active)
COc1ccc(N2C(=O)NC(=O)/C(=C\c3c[nH]c4ccccc34)C2=O)cc1: 23.7 µM (active)
Cc1ccc(NN2C(=O)C=C(c3ccc(Cl)cc3)C2=O)cc1: 11 µM (active)

Moving on to another compound below.
Ask | Record request: IC50 value, item CCOc1ccc(NC(=O)Cn2cncc2-c2ccc([N+](=O)[O-])cc2)cc1
Reply | 5.93 µM (active)

###

experimental-system: Dual specificity protein kinase CLK4 (Homo sapiens, UniProt Q9HAZ1)
Type: functional
Activity calls are given as the source filed them.
Answer with one of the outcomes given here: True for active, False for inactive

These solved cases illustrate the format of a correct answer.
COCC(C)Nc1cc(-c2c[nH]c3ncccc23)cc(Cl)n1 (centres undefined): True
Nc1c(-c2ccc(NC(=O)Nc3cccc(C(F)(F)F)c3)cc2)cnc2c(-c3ccc4c(c3)OCO4)cnn12: False
O=C(Nc1cc(-c2c[nH]c3ncccc23)cc(Cl)n1)c1ccccc1: True

Turning now to a further record.
Ask | Dear all, I need the recorded test outcome for c1ccc(Cn2cc(-c3ccc4[nH]nc(-c5ccccc5)c4c3)nn2)cc1 , thank you.
Reply | True

###

measurement-description: Luminescence Cell-Based Dose Confirmation HTS to Identify Activators of 5'UTR Stem-Loop Driven Alpha-Synuclein mRNA Translation in H4 Neuroglioblastoma Cells. [Related pubchem assays: 1829 (Project Summary), 1814 (Primary HTS)]
Assay type: functional
Calls of active or inactive are those of the source.
experimental-readout: EC50

Here's what some known entries look like.
c1ccc(C2=Nc3ccccc3SC2c2nc3ccccc3[nH]2)cc1 (centres undefined): 0.47 µM (active)
CC(=O)C(Sc1nn(C)c(=S)s1)C(=O)Nc1ccccc1 (centres undefined): 23.9 µM (active)
O=C(c1ccc(Cl)cc1)C(CN1CCCC1)c1ccccc1 (centres undefined): > 120 µM (not active)

Kindly consider the entry below.
Ask | Recorded EC50 of COc1cc(C)ccc1OCCOc1ccccc1Cl , please.
Reply | 32.5 µM (active)

###

experimental-system: Zinc finger protein mex-5 (Caenorhabditis elegans, UniProt Q9XUB2)
Sequence (Q9XUB2 whole entry): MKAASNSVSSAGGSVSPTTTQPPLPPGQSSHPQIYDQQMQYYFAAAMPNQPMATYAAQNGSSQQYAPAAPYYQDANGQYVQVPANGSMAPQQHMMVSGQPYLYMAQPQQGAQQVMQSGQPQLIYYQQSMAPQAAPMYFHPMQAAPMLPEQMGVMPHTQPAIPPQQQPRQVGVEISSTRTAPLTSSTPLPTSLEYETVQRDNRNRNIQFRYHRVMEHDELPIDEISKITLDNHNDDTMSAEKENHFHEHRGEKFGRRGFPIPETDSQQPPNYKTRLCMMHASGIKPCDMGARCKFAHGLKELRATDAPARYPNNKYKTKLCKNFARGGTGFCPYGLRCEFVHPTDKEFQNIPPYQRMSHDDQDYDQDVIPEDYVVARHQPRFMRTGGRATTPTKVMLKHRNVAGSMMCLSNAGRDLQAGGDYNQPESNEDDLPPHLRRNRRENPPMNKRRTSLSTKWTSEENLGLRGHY
measurement-description: potency of MEX-5 RNA-binding blockers – biochemical, C. elegans, fluorescence polarization, dose response (AID 1960)
Calls of active or inactive are those of the source.
The entries below are paired with their reported EC50.

The examples below pair each entry with its known result.
Cn1cccc1/C=C1\C(=O)NC(=O)N(Cc2ccco2)C1=O: 57.7 µM (active)
COc1cccc(OCCn2cc(C=O)c3ccccc32)c1: > 300 µM (not active)
O=C1N=C(N2CCCCC2)S/C1=C/C1=Cc2ccccc2OC1: > 300 µM (not active)

Ask | I would be grateful if you could share the reported EC50 for CN(CC(=O)NCc1ccccn1)S(=O)(=O)c1ccc(Br)cc1 .
Reply | > 300 µM (not active)

Ask | State the recorded EC50 for this entry: CCCN1C(=O)c2cccc3c(N4CCCCC4)ccc(c23)C1=O
Reply | 51 µM (inconclusive)

Ask | Given the entry Cc1ccc2cc(/C=C(\C#N)C(N)=O)c(N3CCCCC3)nc2c1 , report its measured EC50.
Reply | 30.7 µM (inconclusive)

###

Test system: INS1
measurement-description: INS-1E survival protection against cytokine death – cell-based, luminescence, retest, dose response (AID 449756);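 note: cell death triggered by IL-1 beta plus TNF-alpha plus IFN-gamma mixture; protective hits raise ATP signal compared with cytokine alone wells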
Assay type: functional
measurement-setup: Rattus norvegicus
Calls of active or inactive are those of the source.
Quick list: AC50 per entry.

Solved cases (3 shown):
COc1ccc2c(C(=O)NCc3ccc4c(c3)OCO4)c(-c3ccc(S(C)(=O)=O)cc3)sc2c1: 6.76 µM (active)
O=C(N/N=C/c1c(O)ccc2ccccc12)c1[nH]ncc1Br: 0.558 µM (active)
CC(C)(C)OC(=O)NCc1ccc(NC(=O)c2[nH]cnc2C(=O)NCCCCNC(=O)c2nc[nH]c2C(=O)Nc2ccc(CNC(=O)OC(C)(C)C)cc2)cc1: 3.36 µM (active)

Ask | Quick one: AC50 for CNc1nc(N/N=C/c2cc3c(cc2[N+](=O)[O-])OCO3)nc(Nc2ccccc2)n1 ?
Reply | 13.2 µM (active)
